Source: patent US9035073B2

Structures can show the parent of a compound that is named as a salt.
Each entry below lists one item and its recorded melting point value.

Observe how each entry below is paired with its result.
INSERT INTO measurements (compound, value_observed) VALUES
  ('COC1(c2cccc(Cl)c2F)CCNC1 (single isomer, unassigned; (+)) (as salt: oxalic acid salt) [Example 1]', '183 to 185 °C'),
  ('CCN1CCC(OC)(c2cccc(F)c2F)C1 (stereo not shown) (as salt: fumaric acid salt) [Example 13]', '94 to 98 °C'),
  ('CCN1CCC(OC)(c2cccc(F)c2F)C1 (single isomer, unassigned; (+)) (as salt: fumaric acid salt) [Example 6]', '104 to 106 °C');

The measured melting point associated with COC1(c2cc(F)cc(F)c2)CCNC1 (single isomer, unassigned; (+)) (as salt: oxalic acid salt) [Example 14] reads 185 to 187 °C
